The values you see were collected from patent US5129951A.

System: potato tubers
Test: Tuber sprouting 14 days after direct application of aromatic compounds (Example 3)
Assay type: in vivo, Solanum tuberosum L. cv `Norchip`
Settings: 1% emulsion (dip), 25° C., control 98, LSD (0.05) 14
Kindly state % Eyes Sprouted for each of the entries shown.
Record the value in %, omitting the unit from your answer.

Enquiry: Using the record for C=CCc1ccc(O)c(OC)c1 [Eugenol, reference compound] , state its measured % Eyes Sprouted.
Return: 32

Enquiry: Using the record for CC(C)c1ccc(C=O)cc1 , state its measured % Eyes Sprouted.
Return: 5

Enquiry: Using the record for O=CCCc1ccccc1 [Hydrocinnamaldehyde, 3-phenyl-propanal] , state its measured % Eyes Sprouted.
Return: 25

Enquiry: Using the record for O=Cc1ccccc1 , state its measured % Eyes Sprouted.
Return: 43

Enquiry: Using the record for O=Cc1ccccc1O , state its measured % Eyes Sprouted.
Return: 0

Enquiry: Using the record for Cc1ccc(C(C)C)c(O)c1 , state its measured % Eyes Sprouted.
Return: 0

Enquiry: Using the record for O=CC=Cc1ccccc1 , state its measured % Eyes Sprouted.
Return: 0

* * *

Test system: potato tubers
Assay: Tuber texture and quality 14 days after direct application of aromatic compounds (Example 3)
Settings: 10% emulsion (dip), control SS
outcomeMeasure: Tuber Texture

{"compound": "O=CCCc1ccccc1 [Hydrocinnamaldehyde, 3-phenyl-propanal]", "testSystem": "potato tubers", "Tuber Texture": "S"}
{"compound": "C=CCc1ccc(O)c(OC)c1 [Eugenol, reference compound]", "testSystem": "potato tubers", "Tuber Texture": "SS,N"}
{"compound": "CC(C)c1ccc(C=O)cc1", "testSystem": "potato tubers", "Tuber Texture": "SS,N"}
{"compound": "O=Cc1ccccc1O", "testSystem": "potato tubers", "Tuber Texture": "S,N"}

// below: Tuber Texture requested for another compound
Enquiry: State recorded Tuber Texture with potato tubers, entry O=CC=Cc1ccccc1 , no comment.
Return: S,N

* * *

Assay: Theoretical saturated headspace concentration calculated from known vapor pressures
Format: physicochemical
Settings: calculated from known vapor pressures by Ideal Gas Law
Given measured Concentration of Saturated Headspace at 25° C., output Y if it is greater than or equal to 2000 nM and N if not.

Enquiry: Determine whether measured Concentration of Saturated Headspace at 25° C. meets or exceeds 2000 nM for Oc1ccccc1
Return: Y

Enquiry: Determine whether measured Concentration of Saturated Headspace at 25° C. meets or exceeds 2000 nM for Cc1ccc(C(C)C)c(O)c1
Return: Y

Enquiry: Determine whether measured Concentration of Saturated Headspace at 25° C. meets or exceeds 2000 nM for COC(=O)C=Cc1ccccc1 [Methyl cinnamate]
Return: N

Enquiry: Determine whether measured Concentration of Saturated Headspace at 25° C. meets or exceeds 2000 nM for O=CC=Cc1ccccc1
Return: N

Enquiry: Determine whether measured Concentration of Saturated Headspace at 25° C. meets or exceeds 2000 nM for COc1cc(C=O)ccc1O
Return: N

Enquiry: Determine whether measured Concentration of Saturated Headspace at 25° C. meets or exceeds 2000 nM for CC=Cc1ccc(O)c(OC)c1
Return: N

Enquiry: Determine whether measured Concentration of Saturated Headspace at 25° C. meets or exceeds 2000 nM for CCOC(=O)C=Cc1ccccc1 [Ethyl cinnamate]
Return: N

* * *

System: potato tubers
Assay: Tuber sprouting after removal from exposure to volatilized aromatics for 1, 2, 4, 7 or 10 days (Example 2)
Format: in vivo, Solanum tuberosum L. cv `Norchip`
Conditions: 2 days exposure, 14 days after removal, 25° C.; LSD (0.05) 24
Kindly state % Eyes Sprouted for each of the entries shown.
Record the value in %, omitting the unit from your answer.

Enquiry: State recorded % Eyes Sprouted with potato tubers, entry O=Cc1ccccc1O , no comment.
Return: 0

Enquiry: State recorded % Eyes Sprouted with potato tubers, entry O=Cc1ccccc1 , no comment.
Return: 42

Enquiry: State recorded % Eyes Sprouted with potato tubers, entry Cc1ccc(C(C)C)c(O)c1 , no comment.
Return: 60

Enquiry: State recorded % Eyes Sprouted with potato tubers, entry O=CC=Cc1ccccc1 , no comment.
Return: 80

Enquiry: State recorded % Eyes Sprouted with potato tubers, entry CC(C)c1ccc(C=O)cc1 , no comment.
Return: 68

Enquiry: State recorded % Eyes Sprouted with potato tubers, entry O=CCCc1ccccc1 [Hydrocinnamaldehyde, 3-phenyl-propanal] , no comment.
Return: 79

* * *

Test: Theoretical saturated headspace concentration calculated from known vapor pressures
Type: physicochemical
Conditions: calculated from known vapor pressures by Ideal Gas Law
outcomeMeasure: Concentration of Saturated Headspace at 25° C. (µM)
Record the value in µM, omitting the unit from your answer.

Enquiry: Using the record for CC(C)c1ccc(C=O)cc1 [Cuminaldehyde] , state its measured Concentration of Saturated Headspace at 25° C..
Return: 6.4

Enquiry: Using the record for O=Cc1ccccc1 [Benzaldehyde] , state its measured Concentration of Saturated Headspace at 25° C..
Return: 48

Enquiry: Using the record for OCC=Cc1ccccc1 [Cinnamyl alcohol] , state its measured Concentration of Saturated Headspace at 25° C..
Return: 2.4

Enquiry: Using the record for O=C(O)c1ccccc1 [Benzoic acid] , state its measured Concentration of Saturated Headspace at 25° C..
Return: 0.1

Enquiry: Using the record for C=CCc1ccc(O)c(OC)c1 [Eugenol, reference compound] , state its measured Concentration of Saturated Headspace at 25° C..
Return: 1.6

Enquiry: Using the record for O=Cc1ccccc1O [Salicylaldehyde] , state its measured Concentration of Saturated Headspace at 25° C..
Return: 36

* * *

Test system: potato tubers
Assay: Tuber sprouting after removal from exposure to volatilized aromatics for 1, 2, 4, 7 or 10 days (Example 2)
Type: in vivo, Solanum tuberosum L. cv `Norchip`
Conditions: 4 days exposure, 14 days after removal, 25° C.; LSD (0.05) 24
Kindly state % Eyes Sprouted for each of the entries shown.
Record the value in %, omitting the unit from your answer.

Enquiry: Using the record for O=CC=Cc1ccccc1 , state its measured % Eyes Sprouted.
Return: 64

Enquiry: Using the record for O=Cc1ccccc1O , state its measured % Eyes Sprouted.
Return: 0

Enquiry: Using the record for Cc1ccc(C(C)C)c(O)c1 , state its measured % Eyes Sprouted.
Return: 44

Enquiry: Using the record for O=Cc1ccccc1 , state its measured % Eyes Sprouted.
Return: 14

Enquiry: Using the record for O=CCCc1ccccc1 [Hydrocinnamaldehyde, 3-phenyl-propanal] , state its measured % Eyes Sprouted.
Return: 66

Enquiry: Using the record for CC(C)c1ccc(C=O)cc1 , state its measured % Eyes Sprouted.
Return: 49

* * *

System: potato tubers
Test: Tuber texture and quality 14 days after direct application of aromatic compounds (Example 3)
Details: 100% (pure, sprayed), control SS
outcomeMeasure: Tuber Texture

{"compound": "O=CC=Cc1ccccc1", "testSystem": "potato tubers", "Tuber Texture": "S,N"}
{"compound": "O=Cc1ccccc1O", "testSystem": "potato tubers", "Tuber Texture": "S,N"}
{"compound": "C=CCc1ccc(O)c(OC)c1 [Eugenol, reference compound]", "testSystem": "potato tubers", "Tuber Texture": "S,N"}
{"compound": "O=Cc1ccccc1", "testSystem": "potato tubers", "Tuber Texture": "S,N"}
{"compound": "O=CCCc1ccccc1 [Hydrocinnamaldehyde, 3-phenyl-propanal]", "testSystem": "potato tubers", "Tuber Texture": "S,N"}

// below: Tuber Texture requested for another compound
Enquiry: Using the record for CC(C)c1ccc(C=O)cc1 , state its measured Tuber Texture.
Return: SS,N
